# target-or-system: human 5-HT2a receptors (Homo sapiens, UniProt P28223)
# Sequence (P28223 whole entry): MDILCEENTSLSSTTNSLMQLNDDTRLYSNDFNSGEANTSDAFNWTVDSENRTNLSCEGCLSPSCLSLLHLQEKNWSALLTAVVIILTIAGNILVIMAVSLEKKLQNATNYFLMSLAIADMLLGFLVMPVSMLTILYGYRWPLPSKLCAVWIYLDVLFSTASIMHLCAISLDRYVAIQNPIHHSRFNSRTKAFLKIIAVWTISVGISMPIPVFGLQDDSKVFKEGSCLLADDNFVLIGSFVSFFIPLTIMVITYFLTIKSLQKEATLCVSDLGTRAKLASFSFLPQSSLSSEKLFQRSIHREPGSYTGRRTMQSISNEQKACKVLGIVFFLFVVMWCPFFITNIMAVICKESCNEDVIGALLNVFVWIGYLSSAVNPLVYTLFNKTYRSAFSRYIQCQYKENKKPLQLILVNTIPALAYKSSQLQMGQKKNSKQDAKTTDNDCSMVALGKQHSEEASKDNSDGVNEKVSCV
# method-description: Competition radioligand binding, h5-HT2a ([3H]Ketanserin)
reported-metric: Ki (nM)

Reference set, count: 2
compound	Ki, nM
CN1CCC[C@H]1CCN(Cc1ccc(Cl)cc1)Cc1ccc2c(c1)Cc1ccccc1-2 [Example 45]	27
Cc1cccc(CN(CCC2CCCN2C)Cc2ccccc2)c1 (stereo not drawn) [Example 30]	60

a: CN1CCCC1CCN(Cc1ccccc1)Cc1c(Cl)cccc1Cl (stereo not drawn) [Example 23]
b: CN1CCCC1CCN(Cc1ccccc1)Cc1cccc(O)c1 (stereo not drawn) [Example 29]
// query Ki comparison. Which is larger, a or b ? Lab note: record the label of whichever item you select.
// result b
(b: 69 nM, a: 16 nM)

1: Cc1ccc(CN(CCC2CCCN2C)Cc2ccc(C)cc2)cc1 (racemic) [Example 4]
2: CC(C)c1ccc(CN(CCC2CCCN2C)Cc2ccccc2)cc1 (stereo not drawn) [Example 32]
// query // pick min by Ki: 1 , 2 In your reply, give the label of the chosen option.
// result 2

====

Overview of reported Ki across a group of molecules:
# target-or-system: human 5-HT2a receptors (Homo sapiens, UniProt P28223)
# method-description: Competition radioligand binding, h5-HT2a ([3H]Ketanserin)
# run-parameters: read-out: Ki (nM) 5-HT2A; membranes of CHO K1 cells, [3H]Ketanserin, 1 hr 37° C.
Response body: numeric value in nM, unit text excluded.

molecule	unit-annotation	result-value
CCN1CCC[C@H]1CCN(Cc1ccc(C)cc1)Cc1ccc(C)cc1	nM	56

Note: attention shifts to another entry.
// query Fill in Ki for record CN1CCC[C@H]1CCN(Cc1cccc(O)c1)Cc1cccc(O)c1
// result 500

====

# target-or-system: human 5-HT1a receptors (Homo sapiens, UniProt P08908)
# Construct: expressed in transfected cells; host or cells: CHO K1 cells
# Sequence (P08908 1-422): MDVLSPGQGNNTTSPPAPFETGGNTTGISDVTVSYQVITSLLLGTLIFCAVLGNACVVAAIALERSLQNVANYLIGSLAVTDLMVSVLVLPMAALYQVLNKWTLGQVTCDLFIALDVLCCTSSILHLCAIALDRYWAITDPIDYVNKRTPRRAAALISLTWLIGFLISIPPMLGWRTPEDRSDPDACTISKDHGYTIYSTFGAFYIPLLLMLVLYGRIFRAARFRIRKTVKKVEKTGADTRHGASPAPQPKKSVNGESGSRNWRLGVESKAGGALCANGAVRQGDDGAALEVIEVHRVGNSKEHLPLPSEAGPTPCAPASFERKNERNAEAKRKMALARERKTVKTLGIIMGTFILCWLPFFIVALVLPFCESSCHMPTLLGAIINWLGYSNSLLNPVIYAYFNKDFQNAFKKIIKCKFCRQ
# method-description: Competition radioligand binding, h5-HT1a ([3H]5-CT)
# run-parameters: membranes of CHO K1 cells, 1 hr RT
reported-metric: Ki

molecule	reported-metric	result-value
CC(C)c1ccc(CN(CC[C@@H]2CCCN2C)Cc2ccc(Cl)cc2)cc1	Ki	3850 nM
CN1CCC[C@H]1CCN(Cc1ccc(C(C)(C)C)cc1)Cc1cccc(O)c1	Ki	> 4000 nM
CN1CCC[C@H]1CCN(Cc1ccc(Cl)cc1)Cc1ccc(O)c(Cl)c1	Ki	> 4000 nM

// query Determine reported Ki for CN1CCC[C@H]1CCN(Cc1ccc(O)cc1)Cc1ccc(Cl)cc1 ; test system: human 5-HT1a receptors (Homo sapiens, UniProt P08908).
// result > 4000 nM

// query Give reported Ki for Cc1ccc(CN(CC[C@H]2CCCN2C)Cc2ccc(C)cc2)cc1 (human 5-HT1a receptors (Homo sapiens, UniProt P08908))
// result 1780 nM

// query // fetch Ki; item: COc1ccc(CN(CC[C@@H]2CCCN2C)Cc2cccc(O)c2)cc1 ; system: human 5-HT1a receptors (Homo sapiens, UniProt P08908)
// result > 4000 nM

// query Given Cc1cccc(CN(CCC2CCCN2C)Cc2ccccc2)c1 (stereo not shown) , report its Ki on human 5-HT1a receptors (Homo sapiens, UniProt P08908).
// result > 4000 nM

// query Look up human 5-HT1a receptors (Homo sapiens, UniProt P08908) data: Ki of Cc1cc(CN(CC[C@@H]2CCCN2C)Cc2ccc(Cl)cc2)oc1C , then report it.
// result > 4000 nM

// query Provide Ki, recorded with human 5-HT1a receptors (Homo sapiens, UniProt P08908), of Cc1c(CN(CC[C@@H]2CCCN2C)Cc2ccc(Cl)cc2)sc2ccccc12
// result > 4000 nM

// query Please look at Cc1ccc(CN(CC[C@@H]2CCCN2C)Cc2ccc(C)cc2)cc1 and tell me its recorded Ki on human 5-HT1a receptors (Homo sapiens, UniProt P08908).
// result 2850 nM
